- Protocol details: yeast display, Sf9 membrane polyspecificity reagent, FACS + sequencing; frameworks hold sequencing errors
Measured parameter: polyreactivity (PSR sort gate)

QVQLVESGGGLVQAGGSLRLSCAASGSTFIYYTMGWYRQAPGKERELVAAIPSSGGSTYYADSVKGRFTISRDNAKNTVYLQMNSLKPEDTAVYYCADDGTYIKFAKLYRRYDYWGQGTQVTVSS: low polyreactivity
QVQLVESGGGLVQAGGSLRLSCAASGFTIYYYAMGWYRQAPGKVRELVASITSGGSTYYADSVKGRFTISRDNAMNTVYLQMNSLKPEDTAVYYCAQTRFHSKEGDYWGQGTQVTVSS: low polyreactivity
QDQLVESGGGLVQAGGSLRLSCAASGSIFSYYAMGWYRQAAGKERELVAAINDGGGSTYYADSVKGRFTISRDNAKNTVYLQMNSLKPEDTAVYYCAAEWSWGPYRYDYWGQGTQVTVSS: high polyreactivity
QVQLVESGGGLVQAGGSLRLSCAASGRTFPYYAMGWYRQAPGKERELVAAISYSGGTTYYADSVKGRFTISRDNAKNTVYLQMNSLKPEDTAVYYCAAERAILSSDKQSLWRFDYWGQGTQVTVSS: low polyreactivity
QVQLVESGGGLVQAGGSLRLSCAASGRIFRYYAMGWYRQAPGKERELVAVISSSGGSTNYADSVKGRFTISRDNAKNTVYLQMNSLKPEDTAVYYCNAYGAYGGTGDYWGQGTQVTVSS: high polyreactivity

What value of measured polyreactivity (PSR sort gate) is listed for QVQLVESGGGLVQAGGSLGLSCAASGLIFQAYAMGWYRQAPGKERELVAAINWSGDSTYYADSVKGRFTISRDNAKYTVYLQMNSLKPEDTAVYYCAARYRRAKYGYWGQGTQVTVSS ?
high polyreactivity

What value of measured polyreactivity (PSR sort gate) is listed for QVQLVESGGGLVQAGGSLRLSCAASGRTFGYYTMGWYRQAPGKERELVATITSSGGSTYYADSVKGRFTISRDNAKNTVYLQMNSLKPEDTAVYYCAARRKQGAYDYWGQGTQVTVSS ?
high polyreactivity

What value of measured polyreactivity (PSR sort gate) is listed for QVQLQESGGGLVQAGGSLRLSCAASGYISHADEMGWYRQAPGKEHELVASISNGGSTNYADSVKGRFTISRDNANNTVYLQMNSLKSEVTAVYYCAAWTGQVDIHYYWGQGTQVTVSS ?
low polyreactivity

----------
- Protocol details: yeast display, Sf9 membrane polyspecificity reagent, FACS + sequencing; frameworks hold sequencing errors
Measured parameter: polyreactivity (PSR sort gate)

The following sequences have reported results that may help.
QVQLVESGGGLVQAGGSLRLSCAPSGNIFETYAMGWYRPAPGKERELVAVITRGGSTYYADSVKGRFTISRDNAKNTVYLQMNSLKPEDTAVYYCARDAYDDWYGLTDDKSDYWGQGTQVTLSS: low polyreactivity
QVQLVQSGGGLVQAGGSLRLSCAASGSTFARNAMGWYRQAPGKERELVAAISSSGGRTYYADSVKGRFTISRDHAKNSVYLQMNSLKPEYTEVYYCAAAFSLGMYWGQGTQGTVSS: high polyreactivity
QVQLVESGGGLVQAGGSLRLSCAASGLTFRWYAMGWYRQAPGKERELVAAISWSGGSTYYADSVKGRFTISRDNAKNTVYLQMNSLKPEDTAVDYCAASYYADRSKAYDYWGQGTQLTVSS: high polyreactivity
QVQLVESGGGLVQAGGSLRLSCAASGFTFSGNTMGWSRQAPGKERELVATISRTGGITYYADSVKGRFTISRDNAKNTVYLQMNSLKPEDTAVYYCNRRYYYFVYPDDYWGQGTQVTVSS: high polyreactivity
QVQLVESGGGLVQAGGSLRLSCAASGSTLVYNDMGWYRQAPGKEREFVAAIRSNDGSTYYADSVKGRFTISRDNAKNTVYLQMNSLKPEDTAVYYCNARNQVYKIYYSDYRRYDYWGQGTQVTVSS: low polyreactivity

What value of measured polyreactivity (PSR sort gate) is listed for QVQLVESGGGLVQAGGSLRLSCAAYGRTFGRYAMGWYRQAPGKERELVAVINGGGSTYYADSVKGRFTISRDNAKNTVYLQMNSLKPEDTAVDYCAVGGYTRTGGWFDYWGQGTQVTVSS ?
high polyreactivity

What value of measured polyreactivity (PSR sort gate) is listed for QVQLVESGGGLVQAGGSLRLSSAASGRTFFINAMGWYRQAPGKERDLVATITSGGITNYADSVKGRFTISRDNAKNTDYLQMNSLKPEDTAVYYCAVRWYGKYSGVRYYYWGQGTQVTVSS ?
high polyreactivity

What value of measured polyreactivity (PSR sort gate) is listed for QVQLVESGGGLVQAGGSLRLSCAASGSTFSSNAMGWYRQAPGKERELVAAITTSGGSTYYADSVKGRFTISRDNAKNTVYLEMNSLKPEDTAVYYCAADLVHASQWSIFLYGYWGQGTQVTVSS ?
low polyreactivity

What value of measured polyreactivity (PSR sort gate) is listed for QVQLVESGGCLVQAGGSLRLSCAASGFIFRWYAMGWYRQAPGKERELVAAISLGGSTNYADSVKGRFTISRDNAKNTVYLQMNSLKPEDTAVYYCNARYVSYSGRYVIGQYVKYDYWGKGTQVTVSS ?
high polyreactivity

What value of measured polyreactivity (PSR sort gate) is listed for QVQLVESGGGLVQAGGSLRLSCAASGRIFTYNTMGWYRQAPGKERELVAAITSGGRTYYADSVKGRFTISRDNAKNTVYLQMNSLKPEDTAVYYCAAGRSRFVTRYDYWGQGTQVTVSS ?
high polyreactivity

What value of measured polyreactivity (PSR sort gate) is listed for QVQLVESGGGLVQAGGSLRLSCAASGSTFWSNVMGWYRQAPGKESELVSAISYGGVTTSYADSVKGRFTISRDNAKNTVYLQKNSLKPEDTAVYYCATDYVGYYFYVSDYWGQGTQVTVSS ?
low polyreactivity

What value of measured polyreactivity (PSR sort gate) is listed for QVQLVESGGGLVQAGGSLRLSCAASGSTFLWYTIGWYRQAPGKERELVADISSGGTTYYADSVKGRFTISPDNAKNTVYFQMNSLKPEDTAVYFCAKTRWPYDRWKYAFGYWGQGTQVTVSS ?
high polyreactivity

What value of measured polyreactivity (PSR sort gate) is listed for QVQLVESGGGLVQAGGSLRLRCAASGSIFWWYTMGWYRQAPGKERELVASISWSGTSTYYADSVKGRFTISRDNAKYTVYLQMNSLKPEDTALYYCNAVVYWPGTPYTHDDWGQGTQVTVSS ?
low polyreactivity
